Listing of entries alongside the reported CI50.
system: CEM non infectées; experiment: Toxicity on uninfected CEM cells, colorimetric formazan (MTT) reduction; assay type: cell-based; settings: lowest concentration inhibiting formazan formation by at least 50%, four days of incubation, macrophage CEM-SS
Please respond with the number in µM and leave the unit unwritten.

Example results:
CCCCCCCCCCCCCCCCNC[C@H](O)[C@@H](O)[C@H](O[C@@H]1O[C@H](CO)[C@H](O)[C@H](O)[C@H]1O)[C@H](O)CO :: 70
CCCCCCCCCCCCNC[C@H](O)[C@@H](O)[C@H](O[C@@H]1O[C@H](CO)[C@H](O)[C@H](O)[C@H]1O)[C@H](O)CO :: 7000
CCCCCCCCCCCCCCNC[C@H](O)[C@@H](O)[C@H](O[C@@H]1O[C@H](CO)[C@H](O)[C@H](O)[C@H]1O)[C@H](O)CO :: 70

Q: Write down the reported CI50 of CCCCCCCCCNC[C@H](O)[C@@H](O)[C@H](O[C@@H]1O[C@H](CO)[C@H](O)[C@H](O)[C@H]1O)[C@H](O)CO , test system: CEM non infectées.
A: 40

* * *

system: VIH (souche BRU); assay: Anti-HIV in vitro test: syncytia formation in HIV-infected CEM cells; format: cell-based; conditions: 96 h; anti-VIH sur macrophage CEM-SS; lowest concentration reducing syncytia formation by at least 50%, 4 days of infection; read-out: EC50
measured-metric: pEC50
API: returns pEC50 as number; meaning -log10 of concentration in mol/L.

CCCCCCCCCNC[C@H](O)[C@@H](O)[C@H](O[C@@H]1O[C@H](CO)[C@H](O)[C@H](O)[C@H]1O)[C@H](O)CO :: 6.00

--- query ---
Q: Write down the reported pEC50 of CCCCCCCCCCCCCCCC(=O)N(CCCCCCCCC)C[C@H](O)[C@@H](O)[C@H](O[C@@H]1O[C@H](CO)[C@H](O)[C@H](O)[C@H]1O)[C@H](O)CO , test system: VIH (souche BRU).
A: 5.00

Cited source for all entries: patent EP0723972A1
